assayOverview: Colloidal aggregation in fed state simulated intestinal fluid assessed as colloid radius at 20 uM by dynamic light scattering assay in presence of 1% DMSO
Assay type: physicochemical
experimentalConditions: simulated gi fluid
readoutType: Activity (nm)
Give bare numbers, in nm.

Field: example entries. Status: answers known.
The molecule listed as O=C(c1ccc(OCCN2CCCCC2)cc1)c1c(-c2ccc(O)cc2)sc2cc(O)ccc12 [RALOXIFENE] shows Activity equal to 192.2

The molecule listed as CN(C)c1ccc2nc3ccc(N(C)C)cc3[s+]c2c1.[Cl-] [METHYLENE BLUE ANHYDROUS] shows Activity equal to 95.9

The molecule listed as Cc1c(O)cccc1C(=O)N[C@@H](CSc1ccccc1)[C@H](O)CN1C[C@H]2CCCC[C@H]2C[C@H]1C(=O)NC(C)(C)C shows Activity equal to 690.7

Consider now this further molecule.
The molecule listed as CCC(C)n1ncn(-c2ccc(N3CCN(c4ccc(OCC5COC(Cn6cncn6)(c6ccc(Cl)cc6Cl)O5)cc4)CC3)cc2)c1=O (centres undefined) [ITRACONAZOLE] shows Activity equal to 64.5

---

assayedSystem: Cruzipain (Trypanosoma cruzi)
assayOverview: Inhibition of Trypanosoma cruzi cruzaine preincubated for 5 mins before substrate addition by fluorescence assay in absence of Triton X-100
Label T when IC50 < 100 µM; otherwise F.

Example results:
Below 100 µM on IC50? Entry CSc1nc2cc(Cl)c(Oc3cccc(Cl)c3Cl)cc2[nH]1
T

Below 100 µM on IC50? Entry Cc1cccc(CN2CCN(C(c3ccccc3)c3ccc(Cl)cc3)CC2)c1.Cl (stereo not given) [MECLIZINE DIHCL]
F

Below 100 µM on IC50? Entry COc1cc2ncnc(Nc3ccc(F)c(Cl)c3)c2cc1OCCCN1CCOCC1
T

Others:
Below 100 µM on IC50? Entry Cc1ccc(-c2cc(C(F)(F)F)nn2-c2ccc(S(N)(=O)=O)cc2)cc1
F

Below 100 µM on IC50? Entry Cc1cc(C#N)cc(C)c1Oc1nc(Nc2ccc(C#N)cc2)nc(N)c1Br
T

---

assayedSystem: Cruzipain (Trypanosoma cruzi, UniProt P25779)
Sequence (P25779 whole entry): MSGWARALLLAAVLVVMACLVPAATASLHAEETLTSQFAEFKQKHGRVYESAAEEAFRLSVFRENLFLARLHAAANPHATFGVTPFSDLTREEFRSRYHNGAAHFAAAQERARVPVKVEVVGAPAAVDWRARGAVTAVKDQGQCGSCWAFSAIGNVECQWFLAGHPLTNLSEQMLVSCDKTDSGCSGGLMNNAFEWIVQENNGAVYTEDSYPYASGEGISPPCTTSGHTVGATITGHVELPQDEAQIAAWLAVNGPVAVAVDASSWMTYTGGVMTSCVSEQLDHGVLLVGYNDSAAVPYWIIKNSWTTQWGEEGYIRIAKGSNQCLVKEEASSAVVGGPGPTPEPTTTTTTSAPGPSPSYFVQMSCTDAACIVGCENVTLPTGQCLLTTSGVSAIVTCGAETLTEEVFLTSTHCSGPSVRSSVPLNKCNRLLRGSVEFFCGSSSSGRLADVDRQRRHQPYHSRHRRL
assayOverview: Inhibition of Trypanosoma cruzi cruzaine preincubated for 5 mins before substrate addition by fluorescence assay in presence of 0.01% Triton X-100
pIC50: −log10 of the molar value. Counter-ions that a name gives are not always drawn.
Give pIC50 for every item shown.

Reading of pIC50 for Cc1ccc(-c2cc(C(F)(F)F)nn2-c2ccc(S(N)(=O)=O)cc2)cc1 with Cruzipain (Trypanosoma cruzi, UniProt P25779): < 3.40

Reading of pIC50 for CSc1nc2cc(Cl)c(Oc3cccc(Cl)c3Cl)cc2[nH]1 with Cruzipain (Trypanosoma cruzi, UniProt P25779): < 3.70

Reading of pIC50 for O=C(c1ccc(OCCN2CCCCC2)cc1)c1c(-c2ccc(O)cc2)sc2cc(O)ccc12 with Cruzipain (Trypanosoma cruzi, UniProt P25779): 3.89

Reading of pIC50 for CCC(C)n1ncn(-c2ccc(N3CCN(c4ccc(OCC5COC(Cn6cncn6)(c6ccc(Cl)cc6Cl)O5)cc4)CC3)cc2)c1=O (stereo not given) with Cruzipain (Trypanosoma cruzi, UniProt P25779): < 3.70

For every listed record, write down its pIC50.
1. Cc1cccc(CN2CCN(C(c3ccccc3)c3ccc(Cl)cc3)CC2)c1.Cl (stereo not given) [MECLIZINE DIHCL]
2. COC(=O)C1=C(C)NC(C)=C(C(=O)OCCN2CCN(C(c3ccccc3)c3ccccc3)CC2)C1c1cccc([N+](=O)[O-])c1 (stereo not given)

< 3.60
< 4.00

For every listed record, write down its pIC50.
1. COc1cc2ncnc(Nc3ccc(F)c(Cl)c3)c2cc1OCCCN1CCOCC1
2. Cc1cc(C#N)cc(C)c1Oc1nc(Nc2ccc(C#N)cc2)nc(N)c1Br
3. Cc1c(C)c2c(c(C)c1OC(=O)c1cccnc1)CC[C@@](C)(CCC[C@H](C)CCC[C@H](C)CCCC(C)C)O2 (racemic)
4. Cc1ccc(NC(=O)c2ccc(CN3CCN(C)CC3)cc2)cc1Nc1nccc(-c2cccnc2)n1
5. CC(C)/N=c1\cc2n(-c3ccc(Cl)cc3)c3ccccc3nc-2cc1Nc1ccc(Cl)cc1

1. 3.83
2. < 3.70
3. < 3.40
4. 3.53
5. 4.40

For every listed record, write down its pIC50.
1. COC(=O)[C@H](c1ccccc1Cl)N1CCc2sccc2C1 [CLOPIDOGREL BISULFATE]
2. CCOc1nc2cccc(C(=O)OC(C)OC(=O)OC3CCCCC3)c2n1Cc1ccc(-c2ccccc2-c2nnn[nH]2)cc1 (stereo not given)
3. Cc1c(O)cccc1C(=O)N[C@@H](CSc1ccccc1)[C@H](O)CN1C[C@H]2CCCC[C@H]2C[C@H]1C(=O)NC(C)(C)C
4. CC(C)Nc1cccnc1N1CCN(C(=O)c2cc3cc(NS(C)(=O)=O)ccc3[nH]2)CC1.CS(=O)(=O)O [DELAVIRDINE MESYLATE]
5. CC(C)OC(=O)C(C)(C)Oc1ccc(C(=O)c2ccc(Cl)cc2)cc1 [FENOFIBRATE]
6. CCCCc1oc2ccccc2c1C(=O)c1cc(I)c(OCCN(CC)CC)c(I)c1 [AMIODARONE HYDROCHLORIDE]
7. O=C(Nc1cccc2c(=O)cc(-c3nnn[nH]3)oc12)c1ccc(OCCCCc2ccccc2)cc1

1: < 3.52; 2: 3.77; 3: < 3.52; 4: < 3.70; 5: < 3.30; 6: 3.69; 7: 4.17

For every listed record, write down its pIC50.
1. C(=C\c1ccccc1)/CN1CCN(C(c2ccccc2)c2ccccc2)CC1
2. CC(C)=CCC/C(C)=C/CC/C(C)=C/CC/C(C)=C/CC1=C(C)C(=O)c2ccccc2C1=O

1. < 3.52
2. < 3.70

---

assayedSystem: Cruzipain (Trypanosoma cruzi, UniProt P25779)
assayOverview: Inhibition of Trypanosoma cruzi cruzaine preincubated for 5 mins before substrate addition by fluorescence assay in absence of Triton X-100
Counter-ions that a name gives are not always drawn.
Label satisfied when IC50 < 20 µM; otherwise not satisfied.

Below 20 µM on IC50? Entry CC(C)=CCC/C(C)=C/CC/C(C)=C/CC/C(C)=C/CC1=C(C)C(=O)c2ccccc2C1=O
satisfied

Below 20 µM on IC50? Entry Cc1ccc(NC(=O)c2ccc(CN3CCN(C)CC3)cc2)cc1Nc1nccc(-c2cccnc2)n1
not satisfied

Below 20 µM on IC50? Entry CC(C)OC(=O)C(C)(C)Oc1ccc(C(=O)c2ccc(Cl)cc2)cc1 [FENOFIBRATE]
not satisfied

Below 20 µM on IC50? Entry CC(C)Nc1cccnc1N1CCN(C(=O)c2cc3cc(NS(C)(=O)=O)ccc3[nH]2)CC1.CS(=O)(=O)O [DELAVIRDINE MESYLATE]
not satisfied

Below 20 µM on IC50? Entry CC(C)/N=c1\cc2n(-c3ccc(Cl)cc3)c3ccccc3nc-2cc1Nc1ccc(Cl)cc1
satisfied

Below 20 µM on IC50? Entry CCOc1nc2cccc(C(=O)OC(C)OC(=O)OC3CCCCC3)c2n1Cc1ccc(-c2ccccc2-c2nnn[nH]2)cc1 (stereo not given)
not satisfied

Below 20 µM on IC50? Entry Cc1c(O)cccc1C(=O)N[C@@H](CSc1ccccc1)[C@H](O)CN1C[C@H]2CCCC[C@H]2C[C@H]1C(=O)NC(C)(C)C
not satisfied

Below 20 µM on IC50? Entry COC(=O)C1=C(C)NC(C)=C(C(=O)OCCN2CCN(C(c3ccccc3)c3ccccc3)CC2)C1c1cccc([N+](=O)[O-])c1 (stereo not given)
satisfied

Others:
Below 20 µM on IC50? Entry COC(=O)[C@H](c1ccccc1Cl)N1CCc2sccc2C1 [CLOPIDOGREL BISULFATE]
not satisfied

Below 20 µM on IC50? Entry CCCCc1oc2ccccc2c1C(=O)c1cc(I)c(OCCN(CC)CC)c(I)c1 [AMIODARONE HYDROCHLORIDE]
satisfied

Below 20 µM on IC50? Entry Cc1c(C)c2c(c(C)c1OC(=O)c1cccnc1)CC[C@@](C)(CCC[C@H](C)CCC[C@H](C)CCCC(C)C)O2 (racemic)
not satisfied

Below 20 µM on IC50? Entry C(=C\c1ccccc1)/CN1CCN(C(c2ccccc2)c2ccccc2)CC1
not satisfied

Below 20 µM on IC50? Entry O=C(Nc1cccc2c(=O)cc(-c3nnn[nH]3)oc12)c1ccc(OCCCCc2ccccc2)cc1
satisfied

Below 20 µM on IC50? Entry O=C(c1ccc(OCCN2CCCCC2)cc1)c1c(-c2ccc(O)cc2)sc2cc(O)ccc12
not satisfied

Below 20 µM on IC50? Entry CCC(C)n1ncn(-c2ccc(N3CCN(c4ccc(OCC5COC(Cn6cncn6)(c6ccc(Cl)cc6Cl)O5)cc4)CC3)cc2)c1=O (stereo not given)
satisfied

---

assayOverview: Colloidal aggregation in fed state simulated intestinal fluid assessed as colloid radius at 10 uM by dynamic light scattering assay in presence of 1% DMSO
experimentalConditions: simulated gi fluid
Returns condition met if the recorded Activity is greater than or equal to 300 nm, and condition not met otherwise.

Example results:
Decide: is the reported value of Activity for CC(C)/N=c1\cc2n(-c3ccc(Cl)cc3)c3ccccc3nc-2cc1Nc1ccc(Cl)cc1 equal to or greater than 300 nm?
condition met

Decide: is the reported value of Activity for CSc1nc2cc(Cl)c(Oc3cccc(Cl)c3Cl)cc2[nH]1 equal to or greater than 300 nm?
condition not met

Decide: is the reported value of Activity for CC(C)OC(=O)C(C)(C)Oc1ccc(C(=O)c2ccc(Cl)cc2)cc1 [FENOFIBRATE] equal to or greater than 300 nm?
condition not met

Decide: is the reported value of Activity for Cc1cc(C#N)cc(C)c1Oc1nc(Nc2ccc(C#N)cc2)nc(N)c1Br equal to or greater than 300 nm?
condition met

Lab note: next compound to report on.
Decide: is the reported value of Activity for Cc1c(C)c2c(c(C)c1OC(=O)c1cccnc1)CC[C@@](C)(CCC[C@H](C)CCC[C@H](C)CCCC(C)C)O2 (racemic) equal to or greater than 300 nm?
condition not met
